# systemUnderTest: human TRPA1 (Homo sapiens (Human), UniProt O75762)
# Sequence (O75762 whole entry): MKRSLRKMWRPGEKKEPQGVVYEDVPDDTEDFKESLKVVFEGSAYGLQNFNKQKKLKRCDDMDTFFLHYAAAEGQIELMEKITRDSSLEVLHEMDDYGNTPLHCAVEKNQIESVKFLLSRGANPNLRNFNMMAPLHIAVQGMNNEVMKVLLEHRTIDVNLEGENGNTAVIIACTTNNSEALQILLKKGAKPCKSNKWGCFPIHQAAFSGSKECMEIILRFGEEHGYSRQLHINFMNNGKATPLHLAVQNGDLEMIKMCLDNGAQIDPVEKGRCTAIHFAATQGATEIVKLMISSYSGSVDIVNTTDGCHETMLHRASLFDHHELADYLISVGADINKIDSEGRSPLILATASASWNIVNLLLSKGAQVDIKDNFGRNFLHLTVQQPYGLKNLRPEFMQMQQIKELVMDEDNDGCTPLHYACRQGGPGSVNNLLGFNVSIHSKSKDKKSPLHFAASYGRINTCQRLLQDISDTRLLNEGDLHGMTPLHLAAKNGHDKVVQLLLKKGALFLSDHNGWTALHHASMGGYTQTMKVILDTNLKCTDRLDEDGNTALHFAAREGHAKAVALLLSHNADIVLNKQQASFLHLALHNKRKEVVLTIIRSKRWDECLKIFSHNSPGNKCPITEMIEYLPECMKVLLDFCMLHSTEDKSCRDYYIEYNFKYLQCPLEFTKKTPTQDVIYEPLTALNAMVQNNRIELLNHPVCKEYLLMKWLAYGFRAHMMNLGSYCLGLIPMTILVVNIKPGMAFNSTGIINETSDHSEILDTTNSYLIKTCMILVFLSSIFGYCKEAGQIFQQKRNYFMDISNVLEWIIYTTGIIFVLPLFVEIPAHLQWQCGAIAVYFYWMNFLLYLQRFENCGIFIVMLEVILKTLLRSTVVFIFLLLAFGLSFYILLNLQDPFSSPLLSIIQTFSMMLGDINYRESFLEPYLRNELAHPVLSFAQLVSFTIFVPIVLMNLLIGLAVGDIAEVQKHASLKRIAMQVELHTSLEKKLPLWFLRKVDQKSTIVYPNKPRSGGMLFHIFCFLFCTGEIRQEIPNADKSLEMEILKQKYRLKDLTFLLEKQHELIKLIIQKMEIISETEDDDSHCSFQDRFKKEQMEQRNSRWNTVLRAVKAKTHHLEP
# assayText: Measurement of TRPA1 antagonist activity (2): as (1), different lot of human TRPA1 expression plasmid
# Format: cell-based
# conditionSummary: 293T cells transfected with human TRPA1, allylisothiocyanate 20 μM stimulation, calcium fluorescence, read-out: hTRPA1 IC50
pIC50: −log10 of the molar value.
// label = TRUE if pIC50 is not less than 8, otherwise FALSE

Sample answers from the record:
[[record]]
chemsmiles = "O=C(NCc1ccnc(-c2cnc(C(F)(F)F)nc2)c1)[C@@H]1CCCN1S(=O)(=O)c1cc2cc(F)ccc2o1"
classassignment = "TRUE"

[[record]]
chemsmiles = "O=C(CN(Cc1ccccn1)S(=O)(=O)c1cc2cc(F)ccc2o1)NCc1cc(-c2ccc(C(F)(F)F)cc2)ncn1"
classassignment = "FALSE"

[[record]]
chemsmiles = "O=C(NCc1cc(-c2ccc(C(F)(F)F)nc2)ncn1)[C@@H]1CCN1S(=O)(=O)c1cc2cc(F)ccc2o1"
classassignment = "TRUE"

[[record]]
chemsmiles = "CN(C)c1nc(CNC(=O)[C@@H]2CCN2S(=O)(=O)c2cc3cc(F)ccc3o2)cc(-c2ccc(C(F)(F)F)cc2)n1"
classassignment = "FALSE"


Shift focus to the following entry.
API: above_or_equal(metric=pIC50, cutoff=8) for item CN(C)c1nc(CNC(=O)[C@@H]2CCN2S(=O)(=O)c2cc3cc(F)ccc3o2)cc(-c2ccc(C(F)(F)F)cc2O)n1
FALSE

====

# pIC50 values compiled below
# systemUnderTest: UniProtKB O75762
# assayText: Measurement of TRPA1 antagonist activity (1): intracellular calcium increase
# Assay type: cell-based
# conditionSummary: 293T cells transfected with human TRPA1 expression plasmid; allylisothiocyanate 20 μM stimulation; intracellular calcium fluorescence; read-out: hTRPA1 IC50
In plain terms, pIC50 is the concentration in mol/L turned into minus its base-10 logarithm.

[[record]]
molecule = "O=C(NCc1cc(-c2ccc(C(F)(F)F)cc2)ncn1)[C@@H]1CCCN1S(=O)(=O)c1cc2cc(F)ccc2o1 [Example 90]"
numericresult = 9.08


Now take the following molecule into account.
C[C@H](NS(=O)(=O)c1cc2cc(F)ccc2o1)C(=O)NCc1cccc(OCC2CCOCC2)c1 [Example 185] has a reported pIC50 of 6.60

====

# pIC50 values compiled below
# systemUnderTest: UniProt:O75762
# assayText: Measurement of TRPA1 antagonist activity (2): as (1), different lot of human TRPA1 expression plasmid
# Assay type: cell-based
# conditionSummary: 293T cells transfected with human TRPA1, allylisothiocyanate 20 μM stimulation, calcium fluorescence, read-out: hTRPA1 IC50
In plain terms, pIC50 is the concentration in mol/L turned into minus its base-10 logarithm.

Answered examples (3):
[[record]]
compound = "CN(CC(=O)NCc1cc(-c2ccc(C(F)(F)F)cn2)ccn1)S(=O)(=O)c1cc2cc(F)ccc2o1 [Example 339]"
observable = "pIC50"
numericresult = 7.96

[[record]]
compound = "O=C(NCc1cc(-c2ccc(C(F)(F)F)cn2)ccn1)[C@@H]1CCN1S(=O)(=O)c1cc2ccccc2o1 [Example 385]"
observable = "pIC50"
numericresult = 7.89

[[record]]
compound = "O=C(CN(CC1CCNCC1)S(=O)(=O)c1cc2cc(F)ccc2o1)NCc1cc(-c2ccc(C(F)(F)F)cc2)ncn1 [Example 424]"
observable = "pIC50"
numericresult = 7.68


CCN([C@@H](C)C(=O)NCc1cc(-c2ccc(C(F)(F)F)cc2)ncn1)S(=O)(=O)c1cc2cc(F)ccc2o1 [Example 422] has a reported pIC50 of 8.52

====

# systemUnderTest: human TRPA1 (Homo sapiens (Human), UniProt O75762)
# assayText: Measurement of TRPA1 antagonist activity (1): intracellular calcium increase
# Assay type: cell-based
# conditionSummary: 293T cells transfected with human TRPA1 expression plasmid; allylisothiocyanate 20 μM stimulation; intracellular calcium fluorescence; read-out: hTRPA1 IC50
observable: pIC50
In plain terms, pIC50 is the concentration in mol/L turned into minus its base-10 logarithm.

O=C(NCc1cccc(-c2ccc(C(F)(F)F)cc2)c1)[C@@H]1CCCN1S(=O)(=O)c1cc2cc(F)ccc2o1 has a reported pIC50 of 9.32

C#CCN([C@@H](C)C(=O)NCc1ccnc(-c2ccc(C(F)(F)F)nc2)c1)S(=O)(=O)c1cc2cc(F)ccc2o1 has a reported pIC50 of 8.34

====

# systemUnderTest: human TRPA1 (Homo sapiens (Human), UniProt O75762)
# assayText: Measurement of TRPA1 antagonist activity (2): as (1), different lot of human TRPA1 expression plasmid
# Type: cell-based
# conditionSummary: 293T cells transfected with human TRPA1, allylisothiocyanate 20 μM stimulation, calcium fluorescence, read-out: hTRPA1 IC50
observable: IC50 (nM)
Kindly answer with a numeric value in nM, unit omitted.

Answered examples (3):
[[record]]
chemsmiles = "O=C(NCc1ccnc(-c2ccc(C(F)(F)F)cc2O)c1)[C@@H]1CCN1S(=O)(=O)c1cc2cc(F)ccc2o1"
scaleunit = "nM"
numericresult = 9.7

[[record]]
chemsmiles = "O=C(NCc1cc(-c2ccc(OC(F)(F)F)cc2)ncn1)[C@@H]1CCCN1S(=O)(=O)c1cc2cc(F)ccc2o1"
scaleunit = "nM"
numericresult = 2.7

[[record]]
chemsmiles = "CC(C)N(CC(=O)NCc1cc(-c2cnc(C(F)(F)F)nc2)ncn1)S(=O)(=O)c1cc2cc(F)ccc2o1"
scaleunit = "nM"
numericresult = 10


C[C@@]1(C(=O)NCc2cc(-c3ccc(C(F)(F)F)cn3)ccn2)CCCN1S(=O)(=O)c1cc2cc(F)ccc2o1 has a reported IC50 of 14

O=C(NCc1ccc(O)c(-c2cnc(C(F)(F)F)cn2)c1)[C@@H]1CCN1S(=O)(=O)c1cc2cc(F)ccc2o1 has a reported IC50 of 9.3

====

# systemUnderTest: human TRPA1 (Homo sapiens (Human), UniProt O75762)
# assayText: Measurement of TRPA1 antagonist activity (1): intracellular calcium increase
# Format: cell-based
# conditionSummary: 293T cells transfected with human TRPA1 expression plasmid; allylisothiocyanate 20 μM stimulation; intracellular calcium fluorescence; read-out: hTRPA1 IC50
// classify(record): look up IC50 in ranges lower = under 10 nM, middle = from 10 nM up to 40 nM, upper = 40 nM and over

[[record]]
molecule = "C[C@H](NS(=O)(=O)c1cc2cnccc2o1)C(=O)NCc1ccnc(-c2ccc(C(F)(F)F)cc2O)c1 [Example 303]"
systemundertest = "human TRPA1 (Homo sapiens (Human), UniProt O75762)"
classassignment = "upper"

[[record]]
molecule = "O=C(NCc1ccnc(-c2ccc(C(F)(F)F)cc2)c1)[C@@H]1CCCN1S(=O)(=O)c1cc2cc(F)ccc2o1 [Example 128]"
systemundertest = "human TRPA1 (Homo sapiens (Human), UniProt O75762)"
classassignment = "lower"

[[record]]
molecule = "O=C(NCc1ccnc(-c2ccc(C(F)(F)F)cc2)c1)[C@@H]1CC(F)(F)CN1S(=O)(=O)c1cc2cc(F)ccc2o1 [Example 99]"
systemundertest = "human TRPA1 (Homo sapiens (Human), UniProt O75762)"
classassignment = "middle"

[[record]]
molecule = "Cc1ccc(-c2ccnc(CNC(=O)[C@@H]3CCCN3S(=O)(=O)c3cc4ccccc4o3)c2)cc1 [Example 284]"
systemundertest = "human TRPA1 (Homo sapiens (Human), UniProt O75762)"
classassignment = "upper"

[[record]]
molecule = "O=C(NCc1cccc(C[S+]([O-])c2ccc(C(F)(F)F)cc2)c1)[C@@H]1CCCN1S(=O)(=O)c1cc2ccccc2o1 (stereo partly shown) [Example 325]"
systemundertest = "human TRPA1 (Homo sapiens (Human), UniProt O75762)"
classassignment = "upper"


Hi, small favor: classify O=C(NCc1cccc(CCc2ccc(C(F)(F)F)cc2)c1)[C@@H]1CCCN1S(=O)(=O)c1cc2ccccc2o1 [Example 318] by its IC50 when you get a moment.
middle

Hi, small favor: classify C[C@H](NS(=O)(=O)c1cc2cc(F)ccc2o1)C(=O)NCc1ccnc(-c2ccc(C(F)(F)F)cc2)c1 [Example 108] by its IC50 when you get a moment.
middle

Hi, small favor: classify O=C(NCc1ccc(F)c(-c2ccc(C(F)(F)F)cc2)c1)[C@@H]1CCCN1S(=O)(=O)c1cc2ccccc2o1 [Example 307] by its IC50 when you get a moment.
lower

Hi, small favor: classify C[C@H](NS(=O)(=O)c1cc2cc(F)ccc2o1)C(=O)NCc1cc(-c2ncc(C(F)(F)F)cn2)ccn1 [Example 242] by its IC50 when you get a moment.
upper

Hi, small favor: classify O=C(NCc1ccnc(-c2ccc(C(F)(F)F)cn2)c1)[C@@H]1CCCN1S(=O)(=O)c1cc2cc(F)ccc2o1 [Example 221] by its IC50 when you get a moment.
lower

====

# systemUnderTest: human TRPA1 (Homo sapiens (Human), UniProt O75762)
# assayText: Measurement of TRPA1 antagonist activity (2): as (1), different lot of human TRPA1 expression plasmid
# Type: cell-based
# conditionSummary: 293T cells transfected with human TRPA1, allylisothiocyanate 20 μM stimulation, calcium fluorescence, read-out: hTRPA1 IC50
observable: IC50 (nM)
Kindly answer with a numeric value in nM, unit omitted.

Answered examples (4):
[[record]]
compound = "CC(C)N(CC(=O)NCc1cc(-c2ccc(OC(F)(F)F)cc2)ncn1)S(=O)(=O)c1cc2cc(F)ccc2o1 [Example 364]"
systemundertest = "human TRPA1 (Homo sapiens (Human), UniProt O75762)"
numericresult = 10

[[record]]
compound = "O=C(NCc1cc(-c2ccc(C(F)(F)F)cc2)nc(N2CCCC2)n1)[C@@H]1CCCN1S(=O)(=O)c1cc2ccccc2o1 [Example 329]"
systemundertest = "human TRPA1 (Homo sapiens (Human), UniProt O75762)"
numericresult = 14

[[record]]
compound = "O=C(NCc1cc(-c2cnc(C(F)(F)F)nc2)ccn1)[C@@H]1CCN1S(=O)(=O)c1cc2cc(F)ccc2o1 [Example 389]"
systemundertest = "human TRPA1 (Homo sapiens (Human), UniProt O75762)"
numericresult = 11

[[record]]
compound = "O=C(NCc1ccnc(-c2ccc(C(F)F)cc2)c1)[C@@H]1CCCN1S(=O)(=O)c1cc2ccccc2o1 [Example 332]"
systemundertest = "human TRPA1 (Homo sapiens (Human), UniProt O75762)"
numericresult = 16


C[C@H](NS(=O)(=O)c1cc2cnccc2o1)C(=O)NCc1ccc(O)c(-c2ccc(C(F)(F)F)cn2)c1 [Example 373] has a reported IC50 of 79
